test.target: Vitamin D3 receptor (Sus scrofa)
protocol.text: Inhibition of 1-alpha,25(OH)2 D3 binding to pig intestinal mucosa Vitamin D3 receptor (VDR)
Assay type: tissue-based
Sorting guide: entries reporting Relative affinity beneath 1 go in the yes pile, the rest go in the no pile.

Worked examples follow.
C=C1C(=CC=C[C@H]2CCC[C@H]([C@@H](C)CCCC(C)(C)O)C2(C)C)C[C@@H](O)C[C@@H]1O	yes
C=C1C(=CC=C[C@@H]2CCC[C@H]([C@H](C)CCCC(C)(C)O)C2(C)C)C[C@@H](O)C[C@@H]1O	no
C=C1C(=CC=C[C@@H]2CCC[C@H]([C@@H](C)CCCC(C)(C)O)C2(C)C)C[C@@H](O)C[C@@H]1O	yes

Hello, is Relative affinity of the following compound strictly smaller than 1? `C=C1C(=CC=C[C@H]2CCC[C@H]([C@H](C)CCCCC(O)(CC)CC)C2(C)C)C[C@@H](O)C[C@@H]1O` no
